Exercise: state measured log10(IC50) for each of the compounds provided.
Biological target: recombinant full-length human prolyl endopeptidase (PREP) (Homo sapiens, UniProt P48147)
Construct: To recombinant full-length human prolyl endopeptidase (PREP, R&D-Systems, 4308-SE)
Sequence (P48147 whole entry): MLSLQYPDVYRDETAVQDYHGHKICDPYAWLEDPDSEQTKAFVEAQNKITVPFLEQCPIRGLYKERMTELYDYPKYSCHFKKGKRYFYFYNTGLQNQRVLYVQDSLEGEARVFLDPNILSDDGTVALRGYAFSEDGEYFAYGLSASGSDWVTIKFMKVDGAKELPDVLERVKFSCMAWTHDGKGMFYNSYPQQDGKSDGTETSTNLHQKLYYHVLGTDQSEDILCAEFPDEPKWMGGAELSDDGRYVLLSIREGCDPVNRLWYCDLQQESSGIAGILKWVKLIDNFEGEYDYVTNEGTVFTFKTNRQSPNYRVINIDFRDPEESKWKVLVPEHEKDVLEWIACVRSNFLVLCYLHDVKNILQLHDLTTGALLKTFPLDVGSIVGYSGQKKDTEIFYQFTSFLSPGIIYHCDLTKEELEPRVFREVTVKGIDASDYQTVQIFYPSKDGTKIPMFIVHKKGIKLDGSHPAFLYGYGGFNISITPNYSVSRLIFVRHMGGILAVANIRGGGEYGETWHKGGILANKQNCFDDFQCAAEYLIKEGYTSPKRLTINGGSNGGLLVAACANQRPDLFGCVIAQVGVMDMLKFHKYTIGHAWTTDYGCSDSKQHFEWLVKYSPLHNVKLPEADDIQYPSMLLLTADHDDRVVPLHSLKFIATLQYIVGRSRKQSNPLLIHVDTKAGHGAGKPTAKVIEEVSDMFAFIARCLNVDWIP
Assay: Biochemical human prolyl endopeptidase (PREP) assay with fluorescently labelled substrate
Details: substrate Z-Gly-Pro-AMC 50 μM, 32° C., 60 min; some as mean values from multiple independent determinations
Method: B-1 Biochemical Human Prolyl Endopeptidase (PREP) Assay for Identification of Inhibitors of PREP Activity Using a Fluorescently Labelled Substrate Principle of the Assay: The enzymatic conversion of the fluorescent peptide substrate was observed on the basis of the measurement of the fluorescence intensity. The enzyme activity was determined by the ascertaining of the initial slope in the increase in fluorescence. […]
Quick note: numbers are log10 of IC50, with nM as the unit.

State log10(IC50) (recombinant full-length human prolyl endopeptidase (PREP) (Homo sapiens, UniProt P48147)) of CC1CCC(C(=O)N2CC[C@H](F)C2)n2c1nn(Cc1ccc(C(F)(F)F)nc1)c2=O (single isomer, unassigned) [Example 221] . 2.99

State measured log10(IC50) of the compound O=C([C@@H]1CCC(O)c2nn(Cc3ccc(C(F)(F)F)nc3)c(=O)n21)N1CC[C@H](F)C1 (mixture of isomers) with recombinant full-length human prolyl endopeptidase (PREP) (Homo sapiens, UniProt P48147). 0.06

// fetch log10(IC50); item: CC(c1ccc(C(F)(F)F)nc1)n1nc2n(c1=O)[C@H](C(=O)N1CC[C@H](F)C1)CCC2 (single isomer, unassigned) [Example 216] ; system: recombinant full-length human prolyl endopeptidase (PREP) (Homo sapiens, UniProt P48147) -0.25

Given O=C([C@@H]1CCCc2nn(Cc3ccc(C(F)(F)F)nc3)c(=O)n21)N1CCC2CC21 (single isomer, unassigned) [Example 200] , report its log10(IC50) on recombinant full-length human prolyl endopeptidase (PREP) (Homo sapiens, UniProt P48147). 2.66

Give the observed log10(IC50) of O=C(C1CCc2nn(Cc3ccc(C(F)(F)F)nc3)c(=O)n21)N1CC[C@H](F)C1 (mixture of isomers) for recombinant full-length human prolyl endopeptidase (PREP) (Homo sapiens, UniProt P48147). 0.57

For recombinant full-length human prolyl endopeptidase (PREP) (Homo sapiens, UniProt P48147), give log10(IC50) of the listed compound: O=C([C@@H]1C[C@@H](C(F)(F)F)Cc2nn(Cc3ccc(C(F)(F)F)nc3)c(=O)n21)N1CC[C@H](F)C1 (single isomer, unassigned) -0.03

Answer briefly: log10(IC50) recorded on recombinant full-length human prolyl endopeptidase (PREP) (Homo sapiens, UniProt P48147) for Cc1ccc(Cn2nc3n(c2=O)C(C(=O)N2CC[C@H](O)C2)CCC3)cc1 (single isomer, unassigned) 0.48

Report log10(IC50) from recombinant full-length human prolyl endopeptidase (PREP) (Homo sapiens, UniProt P48147) testing of O=C(C1CCCc2nn(Cc3ccc(C(F)(F)F)nc3)c(=O)n21)N1CCC(F)(F)C1 (racemic) 0.83

System recombinant full-length human prolyl endopeptidase (PREP) (Homo sapiens, UniProt P48147). Read-out log10(IC50). Item O=C(C1CCCc2nn(Cc3ccc(F)c(F)c3)c(=O)n21)N1CCCC1 (racemic) . Report value. 0.08

Answer briefly: log10(IC50) recorded on recombinant full-length human prolyl endopeptidase (PREP) (Homo sapiens, UniProt P48147) for O=C(C1CC(C(F)(F)F)Cc2nn(Cc3ccnc(C(F)(F)F)c3F)c(=O)n21)N1C[C@@H](F)[C@@H](F)C1 (single isomer, unassigned) [Example 261] 0.00

State, for recombinant full-length human prolyl endopeptidase (PREP) (Homo sapiens, UniProt P48147), measured log10(IC50) of the compound listed here: O=C([C@@H]1CCCc2nn(Cc3ccc(F)cc3)c(=O)n21)N1C[C@@H](F)[C@@H](F)C1 0.11

GET log10(IC50) where system = recombinant full-length human prolyl endopeptidase (PREP) (Homo sapiens, UniProt P48147) and item = O=C(C1CCCc2nn(Cc3ccc(C(F)(F)F)nc3)c(=O)n21)N1CCCC1 (single isomer, unassigned) [Example 85] 0.32

Please report log10(IC50) with recombinant full-length human prolyl endopeptidase (PREP) (Homo sapiens, UniProt P48147) for item Cc1ccc(Cn2nc3n(c2=O)[C@H](C(=O)N2C[C@H](F)[C@@H](F)C2)CCC3)cc1 . 1.20

GET log10(IC50) | system: recombinant full-length human prolyl endopeptidase (PREP) (Homo sapiens, UniProt P48147) | item: O=C([C@@H]1CCCc2nn(Cc3cccc(Cl)n3)c(=O)n21)N1C[C@@H](F)[C@@H](F)C1 0.26

Write down the reported log10(IC50) (system: recombinant full-length human prolyl endopeptidase (PREP) (Homo sapiens, UniProt P48147)) of COc1ccc(CCn2nc3n(c2=O)[C@H](C(=O)N2C[C@@H](F)[C@@H](F)C2)CCC3)cc1 0.18

Look up recombinant full-length human prolyl endopeptidase (PREP) (Homo sapiens, UniProt P48147) data: log10(IC50) of O=C(C1CC(C(F)(F)F)Cc2nn(Cc3ncc(F)cc3Cl)c(=O)n21)N1CC[C@H](F)C1 (mixture of isomers) [Example 571] , then report it. 0.04

Report value only: log10(IC50), recombinant full-length human prolyl endopeptidase (PREP) (Homo sapiens, UniProt P48147), O=C(C1C(C(F)(F)F)CCc2nn(Cc3ncc(Cl)cc3Cl)c(=O)n21)N1CC(F)C1 (racemic) [Example 306] 2.33
